Values from ChEMBL document CHEMBL1141559

# measurementNotes: Oral bioavailability in rhesus monkey at 1 mg/kg
# Type: ADME, organism-based, Macaca mulatta
# conditionParameters: in vivo
observationType: bioavailability (%)
Response body: numeric value in %, unit text excluded.

Entry Cc1nc(-c2c(F)cc(Cl)cc2-c2cnc([C@@H](C)NC(=O)[C@@](C)(O)C(F)(F)F)c(F)c2)no1 ; bioavailability = 52

----------
Target chain: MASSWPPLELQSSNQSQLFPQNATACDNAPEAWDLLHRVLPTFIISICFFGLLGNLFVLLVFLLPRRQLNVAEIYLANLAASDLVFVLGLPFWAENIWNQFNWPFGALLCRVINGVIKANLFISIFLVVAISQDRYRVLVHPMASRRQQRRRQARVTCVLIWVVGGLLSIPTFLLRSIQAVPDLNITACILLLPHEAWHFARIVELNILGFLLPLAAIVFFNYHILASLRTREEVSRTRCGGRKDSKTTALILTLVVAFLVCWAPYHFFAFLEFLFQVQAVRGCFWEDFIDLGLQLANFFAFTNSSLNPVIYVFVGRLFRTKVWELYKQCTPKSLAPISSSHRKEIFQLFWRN
observationType: Ki
Just so you know, I need the unit written after the number.

Recorded Ki (compound COC(=O)c1c(F)cccc1-c1ccc(CNC(=O)[C@@H](O)C(F)(F)F)c(F)c1 ): 109 nM

Entry C[C@@H](NC(=O)[C@@](C)(O)C(F)(F)F)c1ncc(-c2cc(Cl)cc(F)c2-c2nnn(C)n2)cc1Cl , Ki reported as 0.43 nM

So for COC(=O)c1c(F)cccc1-c1ccc(CNC(=O)[C@@H](O)C(C)(C)C)c(F)c1 , the logged Ki turned out to be 88.5 nM

Reported Ki of COC(=O)c1c(F)cccc1-c1ccc(CNC(=O)C(C)(C)O)c(F)c1 : 125 nM

Lab book: Ki of Cc1noc(-c2c(Cl)cc(Cl)cc2-c2cnc([C@@H](C)NC(=O)[C@@](C)(O)C(F)(F)F)c(F)c2)n1 noted as 0.79 nM
